measuredOn: Mitogen-activated protein kinase kinase kinase kinase 2 (Homo sapiens)
Sequence (Q12851 whole entry): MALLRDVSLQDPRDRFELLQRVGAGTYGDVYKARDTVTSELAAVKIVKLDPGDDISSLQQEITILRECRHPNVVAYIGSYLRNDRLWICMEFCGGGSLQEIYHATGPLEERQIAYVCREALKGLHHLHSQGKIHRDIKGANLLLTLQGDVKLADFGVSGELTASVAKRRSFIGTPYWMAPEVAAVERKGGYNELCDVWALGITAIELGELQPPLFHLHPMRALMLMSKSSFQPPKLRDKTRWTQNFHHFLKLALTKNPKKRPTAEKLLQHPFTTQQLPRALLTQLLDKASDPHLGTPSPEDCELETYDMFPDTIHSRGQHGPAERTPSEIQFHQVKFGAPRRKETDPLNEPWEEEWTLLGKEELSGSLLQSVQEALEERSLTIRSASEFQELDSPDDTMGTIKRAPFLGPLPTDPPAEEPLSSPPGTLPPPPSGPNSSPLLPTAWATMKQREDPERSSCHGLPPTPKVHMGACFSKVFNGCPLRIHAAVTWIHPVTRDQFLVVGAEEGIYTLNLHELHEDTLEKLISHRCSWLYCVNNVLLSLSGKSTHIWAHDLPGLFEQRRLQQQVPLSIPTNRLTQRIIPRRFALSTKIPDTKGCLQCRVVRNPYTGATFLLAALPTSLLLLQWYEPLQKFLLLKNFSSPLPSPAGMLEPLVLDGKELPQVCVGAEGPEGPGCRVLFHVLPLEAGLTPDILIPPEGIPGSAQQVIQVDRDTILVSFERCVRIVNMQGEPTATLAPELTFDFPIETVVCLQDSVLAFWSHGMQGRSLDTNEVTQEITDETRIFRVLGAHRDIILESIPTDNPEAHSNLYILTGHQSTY
assaySummary: Inhibition of MAP4K2 (unknown origin)
pIC50: −log10 of the molar value.
quantityKind: pIC50

{"columns": ["molecule", "quantityKind", "testValue"],
 "data": [
  ["COc1ncc(F)cc1CNc1ccc(Cc2c[nH]c3ncc(C)cc23)c(F)n1 [PLX-5622]", "pIC50", "< 6.00"]
]}

* * *

measuredOn: Ribosomal protein S6 kinase alpha-1 (Homo sapiens, UniProt Q15418)
Sequence (Q15418 whole entry): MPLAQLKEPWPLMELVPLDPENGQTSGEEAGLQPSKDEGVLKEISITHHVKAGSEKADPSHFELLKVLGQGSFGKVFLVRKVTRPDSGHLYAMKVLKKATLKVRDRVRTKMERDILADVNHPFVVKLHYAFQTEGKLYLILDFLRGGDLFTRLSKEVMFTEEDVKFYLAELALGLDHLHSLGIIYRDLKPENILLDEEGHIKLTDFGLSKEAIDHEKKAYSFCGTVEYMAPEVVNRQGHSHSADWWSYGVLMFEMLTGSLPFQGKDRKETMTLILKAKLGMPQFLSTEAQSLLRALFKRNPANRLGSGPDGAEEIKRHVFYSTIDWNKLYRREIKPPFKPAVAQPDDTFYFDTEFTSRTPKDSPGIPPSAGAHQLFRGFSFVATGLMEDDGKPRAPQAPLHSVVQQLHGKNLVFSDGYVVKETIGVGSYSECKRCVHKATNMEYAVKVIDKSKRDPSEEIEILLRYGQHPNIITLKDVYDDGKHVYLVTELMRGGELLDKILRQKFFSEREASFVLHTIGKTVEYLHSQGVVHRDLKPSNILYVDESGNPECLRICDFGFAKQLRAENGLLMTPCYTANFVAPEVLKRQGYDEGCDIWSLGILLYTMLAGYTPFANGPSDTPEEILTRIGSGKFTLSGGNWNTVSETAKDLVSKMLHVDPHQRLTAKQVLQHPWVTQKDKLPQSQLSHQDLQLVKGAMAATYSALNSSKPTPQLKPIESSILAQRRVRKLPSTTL
pIC50: −log10 of the molar value.

{"columns": ["smilesNotation", "measuredOn", "pIC50"],
 "data": [
  ["COc1ncc(F)cc1CNc1ccc(Cc2c[nH]c3ncc(C)cc23)c(F)n1", "Ribosomal protein S6 kinase alpha-1 (Homo sapiens, UniProt Q15418)", "< 6.00"]
]}

Data provenance is ChEMBL document CHEMBL5649170.
